- Test system: Calf thymus DNA
- experiment_summary: Binding affinity to calf thymus DNA by UV-visible absorption spectroscopy
- Assay type: nucleic-acid assay
- measurement_parameters: Bos taurus
measured_metric: Kb (×10⁴ /M)
One number for each entry, in ×10⁴ /M.

Field: example entries. Status: answers known.
In: Returns the measured Kb for the input compound. Input: O=C(/C=C/c1cc2ccccc2nc1Cl)c1ccc(Cl)cc1
Out: 5.13

In: Okay, and O=C(/C=C/c1cc2ccccc2nc1Cl)c1ccccc1 ?
Out: 5.2

In: Cc1ccc(C(=O)/C=C/c2cc3ccccc3nc2Cl)cc1 , same question.
Out: 4.9

In: Can you check O=C(/C=C/c1cc2ccccc2nc1Cl)c1ccc(O)cc1 next?
Out: 1.9

In: And for O=C(/C=C/c1cc2ccccc2nc1Cl)c1ccc([N+](=O)[O-])cc1 ?
Out: 4.91

In: Field entry: COc1ccc(C(=O)/C=C/c2cc3ccccc3nc2Cl)cc1
Out: 2.8

In: Same question for CNc1ccc(C(=O)/C=C/c2cc3ccccc3nc2Cl)cc1 please.
Out: 3.5

Turning now to a further record.
In: Which Kb value is on record for O=C(/C=C/c1cc2ccccc2nc1Cl)c1ccc(Br)cc1 ?
Out: 4.2

---

- Test system: Escherichia coli
- experiment_summary: Photo-cleavage activity in Escherichia coli supercoiled pUC19 DNA assessed as formation of open circular form of DNA at 60 uM measured 2 hrs after UV-light irradiation by gel electrophoresis analysis
Could you please report measured Activity for the items listed next?
Numbers only, in %.

Solved cases (5 shown):
In: What value of Activity has been reported for the following compound? O=C(/C=C/c1cc2ccccc2nc1Cl)c1ccccc1
Out: 50

In: Subsequent entry: O=C(/C=C/c1cc2ccccc2nc1Cl)c1ccc(Cl)cc1
Out: 54

In: Repeat for the following compound: Cc1ccc(C(=O)/C=C/c2cc3ccccc3nc2Cl)cc1
Out: 51

In: Next: O=C(/C=C/c1cc2ccccc2nc1Cl)c1ccc(O)cc1
Out: 53

In: Another: COc1ccc(C(=O)/C=C/c2cc3ccccc3nc2Cl)cc1
Out: 52

Go through the list and state Activity for each entry.
1. CNc1ccc(C(=O)/C=C/c2cc3ccccc3nc2Cl)cc1
2. O=C(/C=C/c1cc2ccccc2nc1Cl)c1ccc([N+](=O)[O-])cc1
3. O=C(/C=C/c1cc2ccccc2nc1Cl)c1ccc(Br)cc1

Out:
[57, 56, 55]

Ref: ChEMBL document CHEMBL3621078
